Task for the reader: assign each of the following variants its reported protein stability index.
B1: C22orf15 (parent)
chain: PRGRAHLLPNPYQQDFLGLPEELR

# Variants of: B1
# measurementDescription: protein stability index of a GFP-peptide fusion (GPS, HEK-293T) (PSI 1-6); higher = more stable;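 further: lentivirally expressed fusions sorted by FACS into six bins by GFP to DsRed ratio, PSI derived from sequencing read proportions per bin multiplied by bin number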
# testConditions: c terminus: a fixed tail appended
Please respond with just the number, no unit label.

### Prompt Can you share its protein stability index? I mean this variant: R2G
### Response 4

### Prompt Can you share its protein stability index? I mean this variant: L19R
### Response 3.9

### Prompt Can you share its protein stability index? I mean this variant: Y12K
### Response 4.11

### Prompt Can you share its protein stability index? I mean this variant: L23C
### Response 4.08

### Prompt Can you share its protein stability index? I mean this variant: N10H
### Response 4.06

### Prompt Can you share its protein stability index? I mean this variant: N10I
### Response 3.97

### Prompt Can you share its protein stability index? I mean this variant: P9E
### Response 3.89

### Prompt Can you share its protein stability index? I mean this variant: R4N
### Response 3.99

### Prompt Can you share its protein stability index? I mean this variant: F16I
### Response 4.01

### Prompt Can you share its protein stability index? I mean this variant: H6M
### Response 4.04

### Prompt Can you share its protein stability index? I mean this variant: G3V
### Response 3.93

### Prompt Can you share its protein stability index? I mean this variant: L23R
### Response 4.04

### Prompt Can you share its protein stability index? I mean this variant: R2M
### Response 4.08

Where these numbers come from: the supplement of paper PMC10567573
